These data points were gathered from patent US9428549B2.

Target: UniProt P25090
Sequence (P25090 whole entry): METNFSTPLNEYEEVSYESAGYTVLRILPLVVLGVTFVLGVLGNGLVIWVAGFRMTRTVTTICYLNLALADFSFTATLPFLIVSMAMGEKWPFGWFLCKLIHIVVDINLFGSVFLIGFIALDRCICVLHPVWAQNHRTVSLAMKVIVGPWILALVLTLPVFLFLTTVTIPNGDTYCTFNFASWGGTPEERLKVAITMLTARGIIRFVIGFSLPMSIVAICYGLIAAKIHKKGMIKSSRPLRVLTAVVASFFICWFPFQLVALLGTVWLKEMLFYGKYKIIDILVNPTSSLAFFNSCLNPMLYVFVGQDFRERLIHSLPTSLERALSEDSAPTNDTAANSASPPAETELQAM
Experiment: Compound-induced calcium activity on FLIPR Tetra in CHO-Gα16 cells stably expressing FPRL1
Details: tested 0.61 to 10,000 nM, read-out: FPR2 Ga16-CHO EC50
Attribute measured: EC50 (nM)

- Molecule: "CC(C)C[C@H](NC(=O)Nc1ccc(Br)cc1)C(=O)N(C)CC(=O)OC(C)(C)C [Compound 1]"
  EC50 [nM]: 11.8

I. CC(C)C[C@H](NC(=O)Nc1ccc(Br)cc1)C(=O)N(CC(=O)O)C(C)C [Compound 10]
II. CCCN(CC(=O)OC(C)(C)C)C(=O)[C@H](CC(C)C)NC(=O)Nc1ccc(C(F)(F)F)cc1 [Compound 5]
For the pair I and II , which entry has the numerically smaller recorded EC50? Choose, then provide that item's label.
I
